# protocolSummary: Body weight of rats in method B
# Design: species or system male Wistar strain rats
# measurementConditions: rat, in vivo
measurementName: Body weight just before blood sampling, 29th day (g)
Answer with a number only, understood to be in g.

compound	unitDescriptor	reportedResult
CC(=Cc1cccc(N)c1)C(=O)OC1CCC23CC24CCC2(C)C(C(C)CCC(C)=C(C)C)CCC2(C)C4CCC3C1(C)C (stereo not drawn)	g	257
CCC(=Cc1ccc(O)c(OC)c1)C(=O)OC1CCC23CC24CCC2(C)C(C(C)CCC=C(C)C)CCC2(C)C4CCC3C1(C)C (stereo not drawn)	g	258

Query block: Give the measured Body weight just before blood sampling, 29th day for COc1cc(C(=O)OC2CCC34CC35CCC3(C)C(C(C)CCC=C(C)C)CCC3(C)C5CCC4C2(C)C)ccc1N (stereo not drawn)
Result block: 259

Query block: Give the measured Body weight just before blood sampling, 29th day for C=C(CCC(C)C1CCC2(C)C3CCC4C(C)(C)C(OC(=O)C(C)=Cc5ccc(N)c(OC)c5)CCC45CC35CCC12C)C(C)C (stereo not drawn)
Result block: 257

Query block: Give the measured Body weight just before blood sampling, 29th day for CCOc1ccc(N)cc1C=CC(=O)OC1CCC23CC24CCC2(C)C(C(C)CCC=C(C)C)CCC2(C)C4CCC3C1(C)C (stereo not drawn)
Result block: 257

Query block: Give the measured Body weight just before blood sampling, 29th day for CCCOc1cc(C=C(C)C(=O)OC2CCC34CC35CCC3(C)C(C(C)CCC=C(C)C)CCC3(C)C5CCC4C2(C)C)ccc1O (stereo not drawn)
Result block: 258

----------
# System: serum lipids and serum lipid hydroperoxide
# protocolSummary: Pharmacological test method A for anti-hyperlipidemic activity (serum lipids, 2 weeks feeding)
# Type: in vivo, male Wistar strain rats
# measurementConditions: versus control group
measurementName: TG % of diff. (%)
Answer with a number only, understood to be in %.

compound	testedSystem	reportedResult
CC(C)=C(C)CCC(C)C1CCC2(C)C3CCC4C(C)(C)C(OC(=O)c5cccc(N)c5)CCC45CC35CCC12C (centres unmarked) [Example 49, cyclobranyl-m-aminobenzoate]	serum lipids and serum lipid hydroperoxide	-26.2
CC(C)=CCCC(C)C1CCC2(C)C3CCC4C(C)(C)C(OC(=O)c5cccc(N)c5)CCC45CC35CCC12C (centres unmarked) [Example 23, cycloartenyl-m-aminobenzoate]	serum lipids and serum lipid hydroperoxide	-18.5
CC(C)=C(C)CCC(C)C1CCC2(C)C3CCC4C(C)(C)C(OC(=O)C=Cc5ccc(N)cc5)CCC45CC35CCC12C (centres unmarked)	serum lipids and serum lipid hydroperoxide	-19.4
COc1cc(C=CC(=O)OC2CCC34CC35CCC3(C)C(C(C)CCC=C(C)C)CCC3(C)C5CCC4C2(C)C)ccc1O (centres unmarked)	serum lipids and serum lipid hydroperoxide	-17.6
CCCCC/C=C\C/C=C\CCCCCCCC(=O)OC1CCC23CC24CCC2(C)C(C(C)CCC(C)=C(C)C)CCC2(C)C4CCC3C1(C)C (centres unmarked) [Example 51, cyclobranyllinolate]	serum lipids and serum lipid hydroperoxide	-4.3

Query block: Give the measured TG % of diff. for CC(C)=C(C)CCC(C)C1CCC2(C)C3CCC4C(C)(C)C(OC(=O)/C=C/c5ccc(O)c(O)c5)CCC45CC35CCC12C (centres unmarked) [Example 32, cyclobranyl-3,4-dihydroxycinnamate]
Result block: -4.8

Query block: Give the measured TG % of diff. for CCOc1cc(C(=O)OC2CCC34CC35CCC3(C)C(C(C)CCC(C)=C(C)C)CCC3(C)C5CCC4C2(C)C)ccc1O (centres unmarked) [Example 62, cyclobranyl-3-ethoxy-4-hydroxybenzoate]
Result block: -3.6

Query block: Give the measured TG % of diff. for CC(C)=CCCC(C)C1CCC2(C)C3CCC4C(C)(C)C(OC(=O)c5ccccc5O)CCC45CC35CCC12C (centres unmarked) [Example 8, cycloartenyl-o-hydroxybenzoate]
Result block: -3.5

Query block: Give the measured TG % of diff. for COc1cc(C(=O)OC2CCC34CC35CCC3(C)C(C(C)CCC=C(C)C)CCC3(C)C5CCC4C2(C)C)ccc1O (centres unmarked) [Example 29, cycloartenyl-4-hydroxy-3-methoxybenzoate]
Result block: -1.5

Query block: Give the measured TG % of diff. for C=C(CCC(C)C1CCC2(C)C3CCC4C(C)(C)C(OC(=O)c5cccc(N)c5)CCC45CC35CCC12C)C(C)C (centres unmarked)
Result block: -5.5

Query block: Give the measured TG % of diff. for COc1ccc(C(=O)OC2CCC34CC35CCC3(C)C(C(C)CCC=C(C)C)CCC3(C)C5CCC4C2(C)C)cc1 (centres unmarked) [Example 14, cycloartenyl-p-methoxybenzoate]
Result block: -6.6
